molecular target: CDK2/Cyclin E1 (Homo sapiens, UniProt P24941); test: CDK2/Cyclin E1 Caliper LabChip EZ Reader mobility shift assay; format: biochemical; design: purchased Eurofins 14-475; settings: read-out: Caliper Assay (CDK2/CCNE1): IC50
pIC50: −log10 of the molar value.
endpoint label: pIC50

What is its pIC50 for CDK2/Cyclin E1 (Homo sapiens, UniProt P24941)? Entry: CNC(=O)[C@@H](NC(=O)[C@H]1CN(C(=O)c2cncs2)CC12CN(C(=O)[C@H]1CC1(C)C)C2)[C@@H](C)OCC1CCCCC1 [I-129B]
5.00 to 6.00

Same question for `C[C@@H](OCC1CCCCC1)[C@@H](COC1CCNCC1)NC(=O)[C@@H]1CN(C(=O)c2cncs2)CC12CN(C(=O)[C@H]1CC1(C)C)C2` please.
≥ 8.00

--- query ---
What is its pIC50 for CDK2/Cyclin E1 (Homo sapiens, UniProt P24941)? Entry: CC(C)(O)C(NC(=O)[C@@H]1CN(C(=O)c2cncs2)CC12CN(C(=O)[C@H]1CC1(C)C)C2)c1cccc(C2CCOCC2)n1 (stereo partly drawn)
5.00 to 6.00
